Where do the numbers come from? From ChEMBL document CHEMBL5131466.

Assignment: determine reported selectivity ratio for the given molecules.
Experiment: Selectivity index, ratio of CC50 for cytotoxicity against human HeLa CCL2 cells to EC50 for antiviral activity against CHIKV 122508 infected in human HeLa CCL2 cells
Type: toxicity, cell-based
Details: read-out: Ratio CC50/EC50

Field: example entries. Status: answers known.
C=C1CC[C@H]2C(C)(C)CCC[C@]2(C)[C@H]1C/C=C1\C(=O)Nc2c(C)cccc21 : > 667
C=C1CC[C@H]2C(C)(C)CCC[C@]2(C)[C@H]1C/C=C1\C(=O)Nc2ccccc21 : > 14
C=C1CC[C@H]2C(C)(C)CCC[C@]2(C)[C@H]1C/C=C1\C(=O)Nc2ccc(C(F)(F)F)cc21 : > 6.1
C=C1CC[C@@H]2[C@](C)(COC(C)=O)[C@H](OC(C)=O)CC[C@@]2(C)[C@@H]1C/C=C1\C(=O)Nc2ccccc21 : > 12
C=C1CC[C@H]2C(C)(C)CCC[C@]2(C)[C@H]1C/C=C1\C(=O)NC(=O)c2ccccc21 : > 347

# input for lookup
Ask: Recorded selectivity ratio of C=C1CC[C@H]2C(C)(C)CCC[C@]2(C)[C@H]1C/C=C1\C(=O)Nc2c(Cl)cc(F)cc21 , please.
Result: > 1350

* * *

Experiment: Selectivity index, ratio of CC50 for cytotoxicity against human HeLa CCL2 cells to EC50 for antiviral activity against CHIKV 122508 infected in human HeLa CCL2 cells
Assay type: toxicity, cell-based
Conditions: read-out: Ratio CC50/EC50
Please provide measured selectivity ratio for the entries that follow.

C=C1CC[C@H]2C(C)(C)CCC[C@]2(C)[C@H]1C/C=C1/C(=O)Nc2cc(F)ccc21 : 20

# map each compound to its selectivity ratio
1. C=C1CC[C@H]2C(C)(C)CCC[C@]2(C)[C@H]1C/C=C1/C(=O)Nc2c1cccc2C(F)(F)F
2. C=C1CC[C@H]2C(C)(C)CCC[C@]2(C)[C@H]1C/C=C1\C(=O)Nc2c1cccc2C(F)(F)F
3. C=C1CC[C@@H]2[C@](C)(CO)[C@H](O)CC[C@@]2(C)[C@@H]1C/C=C1\C(=O)Nc2ccccc21
4. C=C1CC[C@H]2C(C)(C)CCC[C@]2(C)[C@H]1C/C=C1/C(=O)Nc2c(Br)cccc21

Result:
["> 61", "> 11", "> 17", "> 79"]
